Measured values drawn from PubChem BioAssay (NCI) for this set.

Test: NCI Yeast Anticancer Drug Screen. Data for the bub3 strain (AID 167)
Conditions: S. cerevisiae bub3 mutant strain, at 50.0 µM, active compounds read high
The panel holds about 79,000 compounds, 15% with a hit somewhere; the sample as a whole holds those more often. Active and inactive are the calls of the source. Cut-off read from the data, not from the text of the source: active = growth inhibition above about 70%; inactive = the rest.
Measured growth inhibition values are reported for all entries that follow.
measurement type: growth inhibition

>>> result("Nc1nc2nc(N=Nc3ccccc3)[nH]c2c(=O)[nH]1")
"5.45% (inactive)"
>>> result("CC(=O)N(C)Cc1c(O)ccc2ccccc12")
"-2.25% (inactive)"
>>> result("CCOP(=Nc1ccccc1)(OCC)OCC")
"1.75% (inactive)"
>>> result("O=C1C2Cc3ccccc3CN2C(=O)N1CCN1CCOCC1 (configuration not stated)")
"3.25% (inactive)"
>>> result("COc1ccc(C(=O)C(C)(c2nc3n(c2O)C(=N)N=N3)c2nc3n(c2O)C(=N)N=N3)cc1 (configuration not stated)")
"5.8% (inactive)"
>>> result("O=C1NC(=S)S/C1=C\\c1c(Cl)cccc1Cl")
"27.9% (inactive)"
>>> result("CC(C)NCC(O)c1ccc(O)c2ncccc12 (configuration not stated)")
"-22.1% (inactive)"
>>> result("NC(=S)N/N=C(/CC(=O)c1ccc([N+](=O)[O-])cc1)C(=O)Nc1ncc([N+](=O)[O-])s1")
"53.2% (inactive)"
>>> result("Clc1ccc(-c2ncc(-c3ccccc3)o2)cc1")
"33.6% (inactive)"
>>> result("Cc1[nH]n(C2=NCCN2)c(=O)c1Cc1ccccc1")
"-10.6% (inactive)"
>>> result("C=C(C)C(=O)O[C@@H]1C[C@@]2(C)O[C@@H]2C[C@H](O)/C(C)=C/[C@H]2OC(=O)C(=C)[C@@H]21")
"-16.5% (inactive)"
>>> result("NC(=O)C12OC1(Cl)CCCC2(Cl)Cl (configuration not stated)")
"18% (inactive)"

----------
Assay: NCI Yeast Anticancer Drug Screen. Data for the mec2-1 strain (AID 157)
Conditions: S. cerevisiae mec2-1 strain, at 50.0 µM, active compounds read high
Compounds without any hit were thinned out: in the full panel of roughly 79,000, 15% have a hit.
Rule: True for growth inhibition not less than -10%, False for anything less.

>>> group("CCOC(=O)c1cnc2ccccc2c1OCC")
"False"
>>> group("C=C(C)C(=O)OC1C/C(CO)=C\\C(O)C/C(C)=C/C2OC(=O)C(=C)C21 (stereo unspecified)")
"True"
>>> group("CC(=O)NCCc1ccc(OC(C)=O)c(OC(C)=O)c1")
"False"
>>> group("CCCCN(CCCC)C1(c2ccccc2)OC(c2ccccc2)=CC1=O (stereo unspecified)")
"True"
>>> group("CN(C)CCNc1ccc2ncn3c4ccccc4c(=O)c1c23")
"True"
>>> group("O=c1[nH]c(-c2cccc(F)c2)nc2ccccc12")
"False"

----------
Assay: NCI Yeast Anticancer Drug Screen. Data for the sgs1 mgt1 strain (AID 161);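 note: 0% = growth of cultures given vehicle only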
Details: S. cerevisiae sgs1 mgt1 strain, at 50.0 µM, active compounds read high
The panel holds about 79,000 compounds, 15% with a hit somewhere; the sample as a whole holds those more often. Where a SMILES comes first, the peptide text is derived from it. The star is where a group is joined. Cbz = O=C(OCc1ccccc1)*
measurement type: growth inhibition (%)

>>> recorded_number("c1ccc(CCCCCCc2ccccc2)cc1")
-8.5
>>> recorded_number("Nc1nc(N)c2nc3c(nc2n1)CCCCCC3")
4.25
>>> recorded_number("O=C(Nc1ccccc1F)Oc1ccc(Cl)cc1Cl")
20.5
>>> recorded_number("Cc1nc(N(CCO)CCO)c2sc(=S)n(-c3ccccc3)c2n1")
-43.9
>>> recorded_number("Clc1cc(Cl)cc(C=NC23CC4CC(CC(C4)C2)C3)c1")
-40.5
>>> recorded_number("CSc1cc(C)n2nnnc2n1")
-3.2
>>> recorded_number("CSc1n[nH]c(=O)c2nc[nH]c12")
0.55
>>> recorded_number("NC(=O)NC(=O)c1ccccc1")
-10.2
>>> recorded_number("Cc1ccc(CNC(=O)NCCCCCCNC(=O)NCc2ccc(C)cc2)cc1")
-9.95
>>> recorded_number("CC(=O)CC(=O)NCc1ccncc1")
12.1
>>> recorded_number("CC(C)C(CC(=O)O)C(=O)O (stereo not given)")
10.2
>>> recorded_number("C=C(CN(C)C)C(=O)c1ccc(OC)cc1")
-3.75
>>> recorded_number("COc1ccc(/C=C2\\CN(C)Cc3c2nc(N)nc3-c2ccc(OC)cc2)cc1")
5.2
>>> recorded_number("CCC(C)NC(=O)Nc1ccccc1 (stereo not given)")
-0.65
>>> recorded_number("O=C(O)CCNc1ccccc1C(=O)O")
-13.9
>>> recorded_number("COc1ccc(Cl)c2c(=O)c3ccc4c(c3[nH]c12)C(=O)c1ccccc1C4=O")
4.25
>>> recorded_number("COc1nc(NC2OC(CO)C(O)C(O)C2O)c(C(C)=O)c(=O)[nH]1 (stereo not given)")
12.6
>>> recorded_number("O=[N+]([O-])c1ccc(Nc2ccccc2)nc1")
7.35
>>> recorded_number("Cc1ccc(/C=C/c2ccc3ccccc3c2)cc1")
9.05
>>> recorded_number("CSCCC(NC(=O)NS(=O)(=O)c1ccc(C)cc1)C(=O)O (stereo not given)")
-2.3
>>> recorded_number("CCCCCCCCCCN=C(N)CSSCC(N)=NCCCCCCCCCC")
97.1
>>> recorded_number("Cc1ccc[nH]c1=O")
-0.6
>>> recorded_number("CC1Cc2ccccc2C2=C3CC=CCC3C3C(=O)OC(=O)C3C21 (stereo not given)")
0.5
>>> recorded_number("C=C(CCCC(C)OC(C)OCC)[Si](C)(C)C (stereo not given)")
-20.6
>>> recorded_number("CC1CCC23C1CC(CC(=O)C2(C)O)C3(C)C (stereo not given)")
5.2
>>> recorded_number("CCOC(=O)/C=C/C(=O)NN")
2.6
>>> recorded_number("COC(=O)c1c2c(cc3c1CC1(Cc4ccccc4C1=O)C3)CCC2 (stereo not given)")
14.2
>>> recorded_number("COC1CCC(O)C(C=Nc2ccccc2)C1 (stereo not given)")
-11.8
>>> recorded_number("O=c1[nH][nH]c(=O)c2c1nc(SCCc1ccccc1)n2Cc1ccccc1")
11.7
>>> recorded_number("COC(=O)C(=O)c1c(C(=O)OC)nc2nnc(N)n2c1C1CC1")
7.75
>>> recorded_number("CCCCCCCCCCCCCC/C(C(=O)OC)=C(/O)C(=O)OCC")
-27.6
>>> recorded_number("CN(C)CCNC(=O)c1cccc2ccc(-c3ccncc3)nc12")
-20.7
>>> recorded_number("COc1cc(/C=C/C(=O)O)cc(OC)c1O")
-22.9
>>> recorded_number("Cc1cc2c(=O)c3ccccc3oc2c(C#N)c1C")
9.2
>>> recorded_number("CCNC(=O)OCc1cc(Cl)cc(Cl)c1OC(=O)NCC")
99.7
>>> recorded_number("CC1(c2ccccc2)CC(c2cccc([N+](=O)[O-])c2)=NO1 (stereo not given)")
36.9
>>> recorded_number("C#C[C@@H](CCCC)OC(=O)N[C@H](C)c1ccccc1")
64.5
>>> recorded_number("Cc1cc(C)n(/N=C/c2ccccc2[N+](=O)[O-])c(=O)c1C#N")
-2.75
>>> recorded_number("O=C1c2ccccc2CC12Cc1cc3c(cc1C2=O)CCC3 (stereo not given)")
-17.2
>>> recorded_number("CC(C)(C)OC(=O)C(C1NC2C(=O)OCC2(CO)S1)N1C(=O)c2ccccc2C1=O (stereo not given)")
25.9
>>> recorded_number("CCOC(=O)C1C(c2ccc(Cl)cc2Cl)NC(c2ccc(C)cc2)C(C(=O)OC)S1(=O)=O (stereo not given)")
-8.85
>>> recorded_number("CC(NC(=O)C(NC(=O)OCc1ccccc1)C(C)C)C(=O)NCC(=O)O (stereo not drawn) (Cbz-Val-Ala-Gly-OH; configuration not given here)")
-9.9
>>> recorded_number("CN(C)n1c(O)c(N=O)sc1=S")
-7.65
>>> recorded_number("O=c1[nH]c2cc(Cl)ccc2nc1/C=C(\\O)c1ccc(F)cc1")
17.2
>>> recorded_number("N#CCc1ccc(/C(C#N)=C2/OC(=N)C(c3ccc(CC#N)cc3)C2=O)cc1 (stereo not given)")
-5.45
>>> recorded_number("Cc1ccc(Nc2nnc(-c3ccc4c(c3)OCO4)o2)c(C)c1")
-4.4
>>> recorded_number("CN(CC1NCCCC1O)C12CC3CC(CC(C3)C1)C2 (stereo not given)")
12.4
>>> recorded_number("COc1cc(C=O)ccc1OC(=O)Nc1ccc(F)c([N+](=O)[O-])c1")
19.1
>>> recorded_number("C[N+](C)(C)/N=C1\\CC2CCC1C2 (stereo not given)")
-5.55
>>> recorded_number("COCC(=O)Nc1ccccc1")
2.1

----------
Measured growth inhibition values are reported for all entries that follow.
Experiment: NCI Yeast Anticancer Drug Screen. Data for the mlh1 rad18 strain (AID 175)
Settings: S. cerevisiae mlh1 rad18 strain growth inhibition; at 50.0 µM; active compounds read high
The panel holds about 79,000 compounds, 15% with a hit somewhere; the sample as a whole holds those more often.
measurement type: growth inhibition (%)

>>> recorded_number("CC(C)C1CCC(C)(C(N)=O)C1 (stereo unspecified)")
-2.1
>>> recorded_number("CSc1nc(NC2OCC(O)C(O)C2O)cc(=O)[nH]1 (stereo unspecified)")
1.3
>>> recorded_number("CCCCCCCCCCCCCCCCCC(N)=O")
25.4
>>> recorded_number("Cc1cc(C)cc(OCCC(=O)O)c1")
7.1
>>> recorded_number("N#Cc1sc2c(c1OC(=O)c1ccc(C(F)(F)F)cc1)c(=O)n(-c1ccccc1)c(=S)n2-c1ccccc1")
3.05
>>> recorded_number("COc1cc(C=O)ccc1OC(=O)Nc1ccc(F)c([N+](=O)[O-])c1")
14.7
>>> recorded_number("Cc1ccc(S(=O)(=O)OI(O)CC(F)(F)F)cc1")
25.9
>>> recorded_number("O=C1NCC2Cc3ccccc3C(c3ccccc3)=C12 (stereo unspecified)")
-4.25
>>> recorded_number("C[N+]1(C)CC=C(N2CCOCC2)CC1")
-14.4
>>> recorded_number("CCn1ncc2ccc(N(CO)CO)cc21")
4.1
>>> recorded_number("COC(=O)Cc1ccccc1-n1nccc1S(C)=O (stereo unspecified)")
7.45
>>> recorded_number("COc1cc(C(=O)OCCOC(=O)c2ccc(O)c(OC)c2)ccc1O")
40.5
>>> recorded_number("CCOc1ccc(N2C(=O)C(=O)C(C#N)(c3nc4ccccc4o3)C(=O)C2=O)cc1")
15.2
>>> recorded_number("CCCCCCCCCCCCCC(N)=O")
-18
>>> recorded_number("CCCCCC(=O)C#Cc1ccccc1")
20.4
>>> recorded_number("COC/C(=N/Nc1ccc([N+](=O)[O-])cc1[N+](=O)[O-])C(C)(C)C")
-16.8
>>> recorded_number("CC1(OC(=O)Nc2ccccc2)CCCCC1")
-9.95
>>> recorded_number("Cc1nc(-c2cc([N+](=O)[O-])cc([N+](=O)[O-])c2)oc1-c1ccccc1")
-3.4
>>> recorded_number("CC1CCCC(C)C1O (stereo unspecified)")
-14.1
>>> recorded_number("O=c1[nH]nc(Sc2ccccc2)c2nncn12")
24.6
>>> recorded_number("Clc1ccccc1Nc1c2ccccc2nc2ccccc12")
97.7
>>> recorded_number("Nc1cc2c3c(cccc3c1Br)C(=O)NC2=O")
15.8
>>> recorded_number("CCOc1c(N=Nc2ccc([N+](=O)[O-])cc2)c(C)nn1C(N)=S")
15.9
>>> recorded_number("O=C(/C=C/C(=O)NCc1ccccc1)NCc1ccccc1")
-5.95
>>> recorded_number("Cc1ccc(/C=N/NC(N)=O)cc1")
-3.85
>>> recorded_number("NNC(=O)CCC(=O)NC1C2CC3CC(C2)CC1C3 (stereo unspecified)")
25.2
